- EXPERIMENTAL PROTOCOL: Cytotoxicity against HLF by MTT assay
- EXPERIMENTAL CONDITIONS: human, HLF cells; read-out: TC50 (the source's name)
Reported CC50 values for the following compounds.
Unit µM implied. Number only.

{"COMPOUND": "C=C1C(=O)O[C@H](CCCCCCCC)[C@H]1C(=O)O (relative stereo)", "CC50 / µM": 87.1}
{"COMPOUND": "CCCCCCCCCC1SC(=O)c2ccccc2[C@@H]1C(=O)O (some centres not stated)", "CC50 / µM": 88.6}
{"COMPOUND": "CCCCCCCCCCC[C@H]1SC(=O)c2ccccc2[C@@H]1C(=O)O (relative stereo)", "CC50 / µM": 9.67}

-- ask Requested field: CC50. Item: CCCCCCCC[C@H]1SC(=O)c2ccccc2[C@@H]1C(=O)O (relative stereo)
-- reply 84.2

-- ask Requested field: CC50. Item: CCCCCCCCCC[C@H]1SC(=O)c2ccccc2[C@@H]1C(=O)O (relative stereo)
-- reply 12

* * *

- STUDY TARGET: Fatty acid synthase (Rattus norvegicus)
- Sequence (P12785 whole entry): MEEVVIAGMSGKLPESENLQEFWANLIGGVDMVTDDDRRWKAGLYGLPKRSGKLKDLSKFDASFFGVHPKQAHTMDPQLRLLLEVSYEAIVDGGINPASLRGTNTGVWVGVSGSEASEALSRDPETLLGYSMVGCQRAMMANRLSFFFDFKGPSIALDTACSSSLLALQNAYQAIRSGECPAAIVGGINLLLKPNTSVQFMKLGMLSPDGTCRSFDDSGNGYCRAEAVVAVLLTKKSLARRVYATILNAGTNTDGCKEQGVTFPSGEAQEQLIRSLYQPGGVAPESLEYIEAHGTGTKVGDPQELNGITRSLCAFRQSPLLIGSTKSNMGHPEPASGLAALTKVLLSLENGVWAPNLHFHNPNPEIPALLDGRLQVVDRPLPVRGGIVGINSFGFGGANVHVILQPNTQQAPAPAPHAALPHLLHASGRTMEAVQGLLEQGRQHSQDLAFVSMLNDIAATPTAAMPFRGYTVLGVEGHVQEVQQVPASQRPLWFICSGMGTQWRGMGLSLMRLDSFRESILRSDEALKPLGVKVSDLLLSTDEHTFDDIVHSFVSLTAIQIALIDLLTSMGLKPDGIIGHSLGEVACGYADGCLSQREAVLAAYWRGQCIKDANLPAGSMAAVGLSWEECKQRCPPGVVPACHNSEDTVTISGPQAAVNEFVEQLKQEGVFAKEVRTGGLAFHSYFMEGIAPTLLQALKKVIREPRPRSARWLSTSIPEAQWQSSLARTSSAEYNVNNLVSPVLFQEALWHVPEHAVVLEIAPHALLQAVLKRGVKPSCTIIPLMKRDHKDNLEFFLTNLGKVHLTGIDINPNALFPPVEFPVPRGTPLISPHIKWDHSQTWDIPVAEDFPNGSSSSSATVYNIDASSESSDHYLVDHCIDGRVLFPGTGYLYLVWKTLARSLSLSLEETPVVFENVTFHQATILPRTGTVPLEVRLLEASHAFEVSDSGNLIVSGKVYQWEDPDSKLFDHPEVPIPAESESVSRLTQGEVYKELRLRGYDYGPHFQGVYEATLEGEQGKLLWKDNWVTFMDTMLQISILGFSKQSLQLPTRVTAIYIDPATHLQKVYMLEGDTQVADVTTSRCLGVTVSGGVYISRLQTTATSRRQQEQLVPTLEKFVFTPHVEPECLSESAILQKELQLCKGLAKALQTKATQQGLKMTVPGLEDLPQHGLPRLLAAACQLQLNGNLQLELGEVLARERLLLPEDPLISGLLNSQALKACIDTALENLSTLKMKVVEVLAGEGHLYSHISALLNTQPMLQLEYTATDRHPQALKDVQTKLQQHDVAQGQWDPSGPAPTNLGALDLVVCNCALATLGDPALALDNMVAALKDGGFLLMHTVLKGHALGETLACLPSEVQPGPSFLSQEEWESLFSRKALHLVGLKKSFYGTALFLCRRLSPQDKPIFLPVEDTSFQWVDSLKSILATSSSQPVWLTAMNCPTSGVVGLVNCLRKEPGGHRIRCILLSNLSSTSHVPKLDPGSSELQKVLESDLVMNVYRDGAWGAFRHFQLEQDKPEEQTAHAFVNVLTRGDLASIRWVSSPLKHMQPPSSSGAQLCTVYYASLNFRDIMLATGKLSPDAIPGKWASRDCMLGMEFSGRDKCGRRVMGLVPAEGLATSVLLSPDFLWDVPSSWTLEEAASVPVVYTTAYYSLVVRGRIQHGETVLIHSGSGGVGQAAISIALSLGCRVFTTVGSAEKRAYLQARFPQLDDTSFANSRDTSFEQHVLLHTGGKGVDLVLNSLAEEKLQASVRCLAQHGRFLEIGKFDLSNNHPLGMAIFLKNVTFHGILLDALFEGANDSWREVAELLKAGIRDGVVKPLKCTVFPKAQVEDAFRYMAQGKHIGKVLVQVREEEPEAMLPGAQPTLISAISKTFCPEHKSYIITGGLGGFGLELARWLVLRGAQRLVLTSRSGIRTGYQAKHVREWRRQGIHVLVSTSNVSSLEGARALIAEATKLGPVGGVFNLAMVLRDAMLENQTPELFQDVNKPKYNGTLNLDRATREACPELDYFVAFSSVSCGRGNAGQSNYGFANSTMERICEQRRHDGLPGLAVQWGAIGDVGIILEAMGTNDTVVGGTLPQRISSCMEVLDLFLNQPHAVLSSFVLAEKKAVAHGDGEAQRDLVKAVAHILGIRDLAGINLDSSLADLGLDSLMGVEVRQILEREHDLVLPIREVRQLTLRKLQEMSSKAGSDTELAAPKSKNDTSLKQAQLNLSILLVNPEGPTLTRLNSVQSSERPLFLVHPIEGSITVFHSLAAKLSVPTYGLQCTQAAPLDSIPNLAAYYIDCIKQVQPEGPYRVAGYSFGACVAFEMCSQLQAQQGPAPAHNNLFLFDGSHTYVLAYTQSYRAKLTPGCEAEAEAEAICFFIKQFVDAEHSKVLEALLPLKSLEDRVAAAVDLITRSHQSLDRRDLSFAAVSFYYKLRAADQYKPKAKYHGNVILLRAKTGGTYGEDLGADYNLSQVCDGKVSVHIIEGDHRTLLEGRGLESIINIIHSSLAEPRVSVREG
Reported pIC50 values for the following compounds.
Answer as the number alone; pIC50 is minus log10 of concentration in mol/L.

{"COMPOUND": "CCCCCCCCCCC[C@H]1SC(=O)c2ccccc2[C@@H]1C(=O)O (relative stereo)", "pIC50": 5.44}
{"COMPOUND": "CCCCCC[C@H]1SC(=O)c2ccccc2[C@@H]1C(=O)O (relative stereo)", "pIC50": 4.43}
{"COMPOUND": "C=C1C(=O)O[C@H](CCCCCCCC)[C@H]1C(=O)O (relative stereo)", "pIC50": 4.81}
{"COMPOUND": "CCCCCCCCCC1SC(=O)c2ccccc2[C@@H]1C(=O)O (stereo not given in full)", "pIC50": 5.08}

-- ask // lookup pIC50 | system=Fatty acid synthase (Rattus norvegicus) | key= CCCCCCCCCC[C@H]1SC(=O)c2ccccc2[C@@H]1C(=O)O (relative stereo)
-- reply 5.39

* * *

- Test system: fatty acid synthase
- EXPERIMENTAL PROTOCOL: Therapeutic index, ratio of TC50 for HLF to IC50 for Sprague-Dawley rat liver fatty acid synthase
- EXPERIMENTAL CONDITIONS: human (HLF cells), HLF cells versus rat liver fatty acid synthase
VALUE TYPE: selectivity ratio
Response field accepts a number only; no unit should be typed.

The following molecules have reported results that may help.
{"MOLECULE": "CCCCCCCCCCC[C@H]1SC(=O)c2ccccc2[C@@H]1C(=O)O (relative stereo)", "STUDY TARGET": "fatty acid synthase", "selectivity ratio": 2.67}
{"MOLECULE": "C=C1C(=O)O[C@H](CCCCCCCC)[C@H]1C(=O)O (relative stereo)", "STUDY TARGET": "fatty acid synthase", "selectivity ratio": 5.61}

-- ask Requested field: selectivity ratio. Item: CCCCCCCCCC1SC(=O)c2ccccc2[C@@H]1C(=O)O (stereo not given in full)
-- reply 10.7

-- ask Requested field: selectivity ratio. Item: CCCCCCCC[C@H]1SC(=O)c2ccccc2[C@@H]1C(=O)O (relative stereo)
-- reply 6.83

-- ask Requested field: selectivity ratio. Item: CCCCCCCCCC[C@H]1SC(=O)c2ccccc2[C@@H]1C(=O)O (relative stereo)
-- reply 2.92
